Entries annotated with measured % Signal Inhibition Rep1
Biological target: T1, canine OX40L, full length membrane form, expressed on HEK293 cells (canine)
T1 chain: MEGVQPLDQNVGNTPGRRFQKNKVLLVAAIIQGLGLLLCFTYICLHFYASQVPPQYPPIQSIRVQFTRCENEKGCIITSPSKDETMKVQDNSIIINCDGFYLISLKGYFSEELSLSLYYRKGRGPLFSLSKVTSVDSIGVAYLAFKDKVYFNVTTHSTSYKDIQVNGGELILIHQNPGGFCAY
Test: cell-based or functional assay
# unit: % | format: bare number

Binder	% Signal Inhibition Rep1 [%]
PMX029 (antibody, V domains shown, also called PMX29) VH: EVQLVESGGDLVKPGGSLRLSCVASGFTFSSYHMNWVRQAPGKGLQWVAYINTGGSRTSYADAVKGRFTISRDNAKNTLYLQMNSLRAEDTAVYYCANNYWDNFDSWGQGTLVTVSS VL: SYELTQPPSVNVTLRETAHITCGGDSIGSKYVQWIQQNPGQAPVVIIYKDTNRPTGIPERFSGANSGNTATLTISGALAEDEADYYCQVGDSGTKASVFGGGTHLTVL	75.8
PMX292 (antibody, V domains shown) VH: AVQLVESGGDLVRPGGSLRLSCVASGFTFSNFDMYWVRQAPGRGLQWVATISYDGFNTYSTDTVRGRFTISRDNARNTVYLQMNSLRVEDTAVFYCTARRFGLGYWGQGTLVTVSS VL: DIFMAQTPPSLSVSPRETASISCKASQSLLHSDGNTYLDWYLQKPGQSPQLLIYLVSNRFPGVSDRFSGSGSGTGFTLRISRVEASDTGVYYCGQGTQLPYTFSQGTKLEIK	97.5

Now for the binder whose % Signal Inhibition Rep1 we want.
Exam item: What does the record list as % Signal Inhibition Rep1 for PMX049 (antibody, V domains shown, also called PMX49) VH: EVQLVESGGDLVKPGGSLRLSCVASGFTFNNYEMYWVRQAPGKGLEWVARIYESGSTTFSAEAVTGRFTISRDNAKNMVYLQMNSLRAEDTAVYYCASASSSSWRFDYWGQGTLVTVSS VL: SYVLTQLPSVSVTLGQTARITCGGDSIGRKNVCWFQQRLGQAPELIIYDDRSRPSGIPERFSGANSGNTATLTISGALAEDEADYYCQVWDSSTGVFGGGTHLTVL ?
Marked response: 84.6
